molecular target: T1, c-Met (HGF receptor) expressed on cells (human, UniProt P08581 25-1390); assay: flow cytometry, antibody titration on SK-O-V3 ovarian cancer cells, PE anti-human IgG
T1 construct: whole, on cells; Endogenous c-Met on tumour cell lines and on human umbilical vein endothelial cells
T1 sequence (P08581 25-1390): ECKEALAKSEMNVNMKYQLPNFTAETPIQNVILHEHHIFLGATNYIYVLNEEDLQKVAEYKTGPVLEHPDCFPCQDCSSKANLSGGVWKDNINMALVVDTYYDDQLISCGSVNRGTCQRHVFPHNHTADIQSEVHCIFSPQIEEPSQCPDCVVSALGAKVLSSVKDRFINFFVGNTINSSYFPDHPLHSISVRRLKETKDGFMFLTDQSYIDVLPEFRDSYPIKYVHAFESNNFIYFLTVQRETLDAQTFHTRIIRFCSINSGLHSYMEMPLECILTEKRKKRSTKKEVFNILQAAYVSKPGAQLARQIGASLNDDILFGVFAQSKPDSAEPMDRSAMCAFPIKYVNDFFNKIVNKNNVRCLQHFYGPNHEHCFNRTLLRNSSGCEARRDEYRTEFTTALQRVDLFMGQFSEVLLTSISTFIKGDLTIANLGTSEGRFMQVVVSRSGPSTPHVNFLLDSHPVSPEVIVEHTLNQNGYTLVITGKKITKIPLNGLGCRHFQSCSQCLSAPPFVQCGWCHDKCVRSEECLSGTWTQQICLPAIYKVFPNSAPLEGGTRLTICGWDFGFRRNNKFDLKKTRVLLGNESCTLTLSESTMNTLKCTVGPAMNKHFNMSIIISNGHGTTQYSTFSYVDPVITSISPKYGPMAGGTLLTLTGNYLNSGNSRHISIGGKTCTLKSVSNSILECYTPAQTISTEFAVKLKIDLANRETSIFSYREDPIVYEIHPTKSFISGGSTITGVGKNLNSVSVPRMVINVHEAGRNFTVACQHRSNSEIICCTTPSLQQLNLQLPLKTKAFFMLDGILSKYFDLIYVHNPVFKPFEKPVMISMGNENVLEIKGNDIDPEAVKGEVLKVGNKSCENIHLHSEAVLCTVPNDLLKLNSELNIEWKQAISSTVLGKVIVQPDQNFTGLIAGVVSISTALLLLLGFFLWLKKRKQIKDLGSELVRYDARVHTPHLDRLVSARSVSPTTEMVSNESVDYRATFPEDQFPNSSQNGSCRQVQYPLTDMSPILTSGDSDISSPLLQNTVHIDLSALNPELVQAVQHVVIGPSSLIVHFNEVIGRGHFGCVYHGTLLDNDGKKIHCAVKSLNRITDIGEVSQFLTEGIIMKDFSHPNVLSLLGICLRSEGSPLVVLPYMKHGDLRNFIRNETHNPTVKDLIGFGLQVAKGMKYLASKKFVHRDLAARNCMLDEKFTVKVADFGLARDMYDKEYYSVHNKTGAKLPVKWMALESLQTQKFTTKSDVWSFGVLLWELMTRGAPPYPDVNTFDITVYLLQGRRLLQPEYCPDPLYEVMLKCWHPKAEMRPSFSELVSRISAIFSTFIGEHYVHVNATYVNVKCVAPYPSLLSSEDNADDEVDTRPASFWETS
Listed below: EC50 values for each entry.
Report the value in nM with no unit label.

Would you kindly share the measured EC50 for El-B19 (E1 derived anti-c-Met antibody) (antibody, V domains shown, Label 'El-B19' matched to 'GCE-B19' by suffix only; Detected with anti-human IgG; also called E1-B19; GCE-B19) VH: QVQLVQSGAEVKKPGASVKVSCKASGFTFSGDYIHWVRQAPGQGLEWMGWINPNSGGTNYAQKFQGRVTMTRDTSISTAYMELSRLRSDDTAVYYCAREPGRDYYYYDGLDVWGQGTTVTVSS VL: QSVVTQPPSVSGAPGQRVTISCLGSASNIGAGHDVHWYQQLPGTAPKLLIYGNSNRPSGVPDRFSGSKSGTSASLAITGLQAEDEADYYCQSYSSSLSAVLFGTGTKVTVL ?
0.852

Now for a further binder.
Would you kindly share the measured EC50 for El-A14 (E1 derived anti-c-Met antibody) (antibody, V domains shown, Label 'El-A14' matched to 'GCE-A14' by suffix only; Detected with anti-human IgG; also called E1-A14; GCE-A14) VH: QVQLVQSGAEVKKPGASVKVSCKASGYTFSGDYIHWVRQAPGQGLEWMGWINPNSGGTNYAQKFQGRVTMTRDTSISTAYMELSRLRSDDTAVYYCAREPARDYYYYDGLDVWGQGTTVTVSS VL: QSVVTQPPSVSGAPGQRVTISCIGSSSNIGAGHDVHWYQQLPGTAPKLLIYGNSNRPSGVPDRFSGSKSGTSASLAITGLQAEDEADYYCQSYSSSLSAYVFGTGTKVTVL ?
0.12
